test system: THP-1 cells; assay: TNFα generation assay; type: cell-based, human; conditions: Homo sapiens, THP-1, THP-1 cells; Table 22; read-out: IC50 in TNFα generation assay
pIC50: −log10 of the molar value.
Assay Endpoint: pIC50

Recorded results for 5 compounds are shown here.
>>> result("C[C@H](N)[C@H](Nc1nc(Nc2ccc3ncccc3c2)c(C(N)=O)cc1F)C1CC1 [Example 006-368]")
"> 7.19"
>>> result("Cn1cc2cc(Nc3nc(NC4CCCCC4N)c(F)cc3C(N)=O)ccc2n1 (stereo not drawn) [Example 002-041]")
"6.89 to 7.19"
>>> result("CC(C)Oc1cc(Nc2nc(NC3CCCCC3N)c(F)cc2C(N)=O)ccn1 (stereo not drawn) [Example 002-055]")
"6.70 to 6.89"
>>> result("Cn1nc(F)c2ccc(Nc3nc(NC4CCCCC4N)c(F)cc3C(N)=O)cc21 (stereo not drawn) [Example 002-198]")
"6.89 to 7.19"
>>> result("CCCc1nn(CCOC)c2ccc(Nc3nc(N[C@@H]4CCCC[C@@H]4N)c(F)cc3C(N)=O)cc12 [Example 006-458]")
"6.70 to 6.89"

// query pIC50 value for entry CCOc1ncc(Nc2nc(N[C@@H]3CCCC[C@@H]3N)c(F)cc2C(N)=O)cc1-n1cccn1 [Example 006-494]
6.70 to 6.89

Consider the compound N#Cc1cc(Nc2nc(N[C@@H]3CCCC[C@@H]3N)c(F)cc2C(N)=O)cnc1N1CCOCC1 (relative stereo) [Example 004-228] and give its measured pIC50.
6.89 to 7.19

For NC(=O)c1cc(F)c(NC2CCCCC2N)nc1Nc1ccc2c(cnn2CC(F)F)c1 (stereo not drawn) [Example 002-187] , what is its reported pIC50?
> 7.19

GET /values?readout=pIC50&item= Cc1ccncc1Nc1nc(N[C@@H]2CCCC[C@@H]2N)c(F)cc1C(N)=O [Example 004-019]
6.70 to 6.89

Request the reported pIC50 associated with CC[C@@H](Nc1nc(Nc2ccnc(-c3cc(OC)ccc3F)c2)c(C(N)=O)cc1F)[C@H](C)N [Example 006-315]
> 7.19

Looking for the measured pIC50 of COc1ncc(Nc2nc(N[C@@H]3CCCC[C@@H]3N)c(F)cc2C(N)=O)cc1N1CCOCC1 [Example 006-564] , can you help?
6.89 to 7.19

# input compound: CCC[C@@H](Nc1nc(Nc2ccnc(OCC)c2)c(C(N)=O)cc1F)[C@H](C)N [Example 006-309] ; wanted: its pIC50
6.89 to 7.19

May I ask what pIC50 has been recorded for NC(=O)c1cc(F)c(N[C@@H]2CCCC[C@@H]2N)nc1Nc1cnc2c(c1)CCC2 (relative stereo) [Example 004-162] ?
6.70 to 6.89

Which measured pIC50 value corresponds to Cc1ncc(Nc2nc(N[C@H](C3CC3)[C@H](C)N)c(F)cc2C(N)=O)cc1-n1nccn1 [Example 006-483] ?
> 7.19

Tell me the measured pIC50 of CCc1nn(CCOC)c2ccc(Nc3nc(N[C@@H]4CCCC[C@@H]4N)c(F)cc3C(N)=O)cc12 [Example 006-453] , please.
> 7.19

###

# pIC50 per record follows
biological target: glutathione S-transferase (GST)-fused full-length human Syk protein (Homo sapiens); construct: (GST)-fused full-length human Syk protein; GST (glutathione S-transferase); purchased Carna Biosciences; assay: Syk enzyme assay; assay type: biochemical; settings: Syk enzyme assay, Test Example 1; read-out: IC50 of Syk-inhibitory activity
pIC50: −log10 of the molar value.

Observe how each entry below is paired with its result.
>>> result("COCCOCCOc1ccc2cc(Nc3nc(NC4CCCCC4N)c(F)cc3C(N)=O)ccc2n1 (centres unmarked) [Example 002-110]")
"> 8.00"
>>> result("CC[C@H](N)[C@@H](CC)Nc1nc(Nc2ccc3ncccc3c2)c(C(N)=O)cc1F [Example 006-199]")
"> 8.00"
>>> result("CCn1ncc2c(Nc3nc(N[C@H](C4CC4)[C@H](C)N)c(F)cc3C(N)=O)cccc21 [Example 006-576]")
"> 8.00"
>>> result("CC(C)COCCOc1ccc2cc(Nc3nc(NC4CCCCC4N)c(F)cc3C(N)=O)ccc2n1 (centres unmarked) [Example 002-109]")
"7.30 to 8.00"
>>> result("CC[C@@H](Nc1nc(Nc2cnc3cc(OCCOC)ccc3c2)c(C(N)=O)cc1F)[C@H](C)N [Example 006-259]")
"> 8.00"
>>> result("CC(C)c1nn(C)c2ccc(Nc3nc(N[C@@H]4CCCC[C@@H]4N)c(F)cc3C(N)=O)cc12 [Example 006-461]")
"> 8.00"
>>> result("Cc1cc(Nc2nc(N[C@@H](CN)CC(C)C)c(F)cc2C(N)=O)cnc1C [Example 006-177]")
"> 8.00"

Find the measured pIC50: item NC(=O)c1cc(F)c(NC2CCCCC2N)nc1Nc1cncc(C2CCCC2)c1 (centres unmarked) [Example 002-094] , target or system glutathione S-transferase (GST)-fused full-length human Syk protein (Homo sapiens).
7.30 to 8.00
